Every entry's value here was drawn from ChEMBL document CHEMBL1201862.

Target: Eukaryotic translation initiation factor 4E (Mus musculus)
Sequence (P63073 whole entry): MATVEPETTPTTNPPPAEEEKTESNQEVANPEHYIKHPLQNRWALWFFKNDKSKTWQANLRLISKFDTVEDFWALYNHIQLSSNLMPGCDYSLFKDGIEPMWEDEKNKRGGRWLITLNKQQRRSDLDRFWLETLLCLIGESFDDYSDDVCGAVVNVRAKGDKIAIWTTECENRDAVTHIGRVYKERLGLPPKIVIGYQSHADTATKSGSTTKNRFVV
Experiment: eIF4E–eIF4G protein interaction inhibitors, dose response, biochemical, TR-FRET (AID 855);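 also: potency for disrupting eIF4E binding to eIF4GI seen as loss of FRET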
Format: functional
The source made the active and inactive calls.
Please answer using one outcome listed in y (active), n (inactive)

{"Structure As Smiles": "N#Cc1ccc(CSc2nnc(NC(=O)c3ccc4ncsc4c3)s2)cc1", "Assigned Category": "y"}
{"Structure As Smiles": "Oc1c(Cl)cc(Cl)c(Cl)c1Cc1c(O)c(Cl)cc(Cl)c1Cl", "Assigned Category": "y"}
{"Structure As Smiles": "O=C(Nc1nccs1)c1cc(-c2ccco2)nc2ccccc12", "Assigned Category": "n"}

Query: Record lookup: outcome of this test for CCOC(=O)/C(C#N)=C/c1ccc(OC(=O)c2ccccn2)cc1 ?
Result: n

* * *

Target: Leucine aminopeptidase (Plasmodium falciparum 3D7)
Sequence (Q8IL11 whole entry): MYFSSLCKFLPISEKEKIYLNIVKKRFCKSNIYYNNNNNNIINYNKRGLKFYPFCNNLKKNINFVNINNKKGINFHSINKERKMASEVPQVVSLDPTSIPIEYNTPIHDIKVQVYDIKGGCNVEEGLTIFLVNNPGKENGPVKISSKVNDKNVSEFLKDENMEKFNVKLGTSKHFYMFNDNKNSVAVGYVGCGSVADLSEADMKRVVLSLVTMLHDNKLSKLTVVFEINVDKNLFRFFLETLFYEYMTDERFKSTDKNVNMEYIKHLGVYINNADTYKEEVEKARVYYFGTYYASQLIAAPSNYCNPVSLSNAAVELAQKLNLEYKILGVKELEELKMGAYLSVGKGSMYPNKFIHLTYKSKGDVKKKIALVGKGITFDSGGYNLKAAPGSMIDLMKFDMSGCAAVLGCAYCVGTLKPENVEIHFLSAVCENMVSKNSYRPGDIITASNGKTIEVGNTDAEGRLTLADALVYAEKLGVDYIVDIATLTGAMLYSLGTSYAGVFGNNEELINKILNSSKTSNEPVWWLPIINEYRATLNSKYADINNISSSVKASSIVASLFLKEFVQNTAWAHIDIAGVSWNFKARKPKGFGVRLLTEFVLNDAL
Assay: P. falciparum M17LAP inhibitors, primary screen, biochemical, fluorogenic H-Leu-NHMec substrate, 1536-well (AID 1619)
Assay type: functional
Active and inactive are the calls of the source.
Quantity Name: IC50

Query: # query: IC50 | item O=C(CC(Nc1cccc(Cl)c1Cl)C(=O)O)c1ccccc1 (centres undefined) | system: Leucine aminopeptidase (Plasmodium falciparum 3D7)
Result: 14.2 µM (active)

* * *

IC50 by entry:
Target: Glucose-6-phosphate 1-dehydrogenase (Homo sapiens)
Assay: human G6PD enzyme inhibitors, dose response, selectivity assay for P. falciparum G6PD inhibitor project, biochemical, fluorescence (AID 504792)
Type: functional
Calls of active or inactive are those of the source.

Known IC50 results, listed for orientation:
{"Compound": "[O-][S+](c1ccccc1O)[S+]([O-])c1ccccc1O (stereo not given)", "IC50": "54.1 µM (inactive)"}
{"Compound": "CCOC(=O)c1ccc(/[N+]([O-])=C/c2ccccc2)cc1", "IC50": "> 80 µM (inactive)"}
{"Compound": "Cc1cc(C)nc(NC(N)=Nc2ccccc2-c2ccccc2)n1", "IC50": "> 80 µM (inactive)"}
{"Compound": "Cc1c(/C=C/C(=O)c2ccc(Cl)s2)cnn1C", "IC50": "> 80 µM (inactive)"}
{"Compound": "Cc1ccc(NC(=O)Cn2sc3nc(C)cc(C)c3c2=O)c(Cl)c1", "IC50": "30.5 µM (inactive)"}

Query: Given the entry CCc1ccc(S(=O)(=O)Nc2cc(SCC(=O)O)c(O)c3ccccc23)cc1 , report its measured IC50.
Result: 50 µM (inactive)

Query: Would you mind telling me what IC50 value was observed for COc1cccc(/C=N/NC(=O)CSc2cccc3cccnc23)c1 ?
Result: > 80 µM (inactive)

Query: # query: IC50 of entry NC1CCc2cc(O)c(O)cc2C1 (stereo not given)
Result: > 80 µM (inactive)

Query: Please report the recorded IC50 for Nc1ccc(N(CCO)CCO)cc1 .
Result: > 80 µM (inactive)

Query: IC50 for CC(C)c1nnc(NC(=O)c2cccc(-n3cnnn3)c2)s1 ?
Result: 50 µM (inactive)
